assay.target: human IFN-α4 (human, UniProt P05014 24-189)
Sequence (P05014 24-189 limits assumed): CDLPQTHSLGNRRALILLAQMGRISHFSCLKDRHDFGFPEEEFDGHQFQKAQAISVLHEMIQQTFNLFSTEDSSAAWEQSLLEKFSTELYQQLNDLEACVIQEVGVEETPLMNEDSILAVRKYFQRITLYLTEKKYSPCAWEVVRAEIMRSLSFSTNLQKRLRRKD
method.description: cell-based or functional assay
readout.name: IC 50 (ng/ml), ISRE dual luciferase reporter assay (ng/mL)

binder	unit	recorded.measurement
26B9 (antibody, human IgG1, kappa, V domains shown, human-derived IgG1, kappa; also called MAB 26B9; hMAB 26B9) VH: QILLQESGPGLVKPTETLSLTCSVSGDSISDSSHYWAWIRQPPGKGPEWIGSVYFSSMTHYNPSLKSRVSISVDKPKNQFSLKVTSVTVADTATYYCARQALARVGAMNWFDPWGQGSLVTVSS VL: DIIMTQSPDSLPVSLGEGVTINCKSSQSVFFTSSNKSCLAWYQQKPGKSPKLLIYWASTRQSGVPDRFRGSGSGTDFSLTITSLQAEDVAVYFCQQCQTSPPTFGGGTRLEIKR	ng/mL	2.07
12H5 (antibody, human IgG1, kappa, V domains shown) VH: QVQLIQSGPEVKRPGASVKVSCKASENTFDTHYINWVRQAPGQGLTWLGWLNPTTGKTGFPQKFKGRVILTSDTSLNTAYMEVSRLTSEDTAVYFCARVLKLSDEYNYGFDVWGQGTTVIVSS VL: DIQVTQSPSSLSASIGDRVTITCRASQNILTFINWYQHKPGKAPKLLIYAASVLQNEVPSRFSGSGSGTDFTLTITSLQPDDFGTYYCQQTYLTPQCSFGQGTKVEIKR	ng/mL	0.48
50E11 (antibody, human IgG1, kappa, V domains shown) VH: QVQLVQSGAEMKKPGSSVKVSCKDFGGTFSVYGVNWVRQAPGQGLEWMGGLIPVIGPANYAQKFQGRITITADESTSTAYMELSSLRFDDTAIYYCVRDDNEYWGQGTLVTVSS VL: EMVLTQSPATLSLSPGERATLSCRASQTVSTFLAWYQQKPGQVPRLLVYDISSRANGTPARFSGGGSGTDFTLTISSLELEDFAVYYCQWRSNWPPSLTFGGGTRVEIKR	ng/mL	20.2
8H1 (antibody, human IgG1, kappa, V domains shown) VH: QVQLVQSGAEVKKPGASVKVSCKASGQTFTSDDINWVRQAPGQGLEWMGWRNPNTQDTGYAQKFHGRLTLTSNSSISTSYLELSGLRSEDTAVYYCARAGTSTLTGHYFALGVWGQGTTVIVSS VL: DIQLTQSPSSLSASVGDRVTITCQATQDISKYLNWYQQKPGKVPKLLIYETSNLEVGVPSRFSGSGSGTHFTLTISSLQAEDFATYYCQQYENFPFTFGGGTKVEIKR	ng/mL	5.43
